B1: TPR 5TU (parent)
chain: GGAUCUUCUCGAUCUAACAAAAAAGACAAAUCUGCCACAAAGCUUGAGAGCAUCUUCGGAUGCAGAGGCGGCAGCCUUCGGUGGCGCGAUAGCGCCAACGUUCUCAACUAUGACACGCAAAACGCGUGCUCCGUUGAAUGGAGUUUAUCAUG

Variants of: B1
assay-procedure: polymerase ribozyme fitness, log enrichment relative to wild type (log ratio); higher = more active; in vitro selection for triplet polymerase activity
Fewer inactive variants are shown than the library holds.
Please use MET whenever polymerase ribozyme fitness (log ratio) is not below -3, and NOT MET whenever it is.

G68A G88A C96G C118A G126A; NOT MET
A37C A60C G67C C76G; NOT MET
A22U U55A C96U; MET
A60G U104G G136U U144C; NOT MET
C93G A98C; MET

Could you please find out whether C27U A37C A52C C87U G88C has polymerase ribozyme fitness (log ratio) that meets -3 or exceeds it?
NOT MET

Check the entry A24U G68C G81C G94A A98C U104C : does polymerase ribozyme fitness (log ratio) equal or exceed -3?
NOT MET

Hi team, for A21G C38U A60G C85U , is the recorded polymerase ribozyme fitness (log ratio) at or above -3?
MET

Entry A16U A17C G50A U56A C87U G88A G117U : is its polymerase ribozyme fitness (log ratio) no less than -3?
NOT MET

Answer whether polymerase ribozyme fitness (log ratio) of A23G G50C G86C A89G G92U A97U G141C is greater than or equal to -3.
NOT MET

Tell me whether polymerase ribozyme fitness (log ratio) is at least -3 here: G83C U145C
MET
